Test system: DU-145 cells
Test: Protective effects against H2O2-induced oxidative stress in DU-145 cells (MTT)
Format: cell-based, human
Settings: increase-fold of cell survival; compound 0.0015 mg/mL, 250 µM H2O2, DU-145
List of Increase-fold values.
property_measured: Increase-fold

* CCCNC(=[Se])NC(=O)c1ccco1 [Compound 1.I] | 2.7
* CCCNC(=[Se])NC(=O)c1cccs1 [Compound 2.I] | 3.1
* O=C1O[C@H]([C@@H](O)CO)C(O)=C1O [Asc. Acid, ascorbic acid, reference compound] | 2.9
* CCCNC(=[Se])NC(=O)c1ccccc1 [Compound 5.I, N-(propylcarbamoselenoyl)benzamide] | 2.7
* C=CCNC(=[Se])NC(=O)c1cccc(C(=O)NC(=[Se])NCC=C)c1 [Compound 10.II] | 1.1
* C=CCNC(=[Se])NC(=O)c1cccnc1 [Compound 7.II, N-(allylcarbamoselenoyl)nicotinamide] | 1.2

###

Test system: DU-145 cells
Assay: Protective effects against H2O2-induced oxidative stress in DU-145 cells (MTT)
Assay type: cell-based, human
Settings: increase-fold of cell survival; compound 0.0003 mg/mL, 300 µM H2O2, DU-145
property_measured: Increase-fold

- CCCNC(=[Se])NC(=O)c1ccco1: 1.8
- CCCNC(=[Se])NC(=O)c1cccs1: 1.0
- O=C1O[C@H]([C@@H](O)CO)C(O)=C1O [Asc. Acid, ascorbic acid, reference compound]: 2.2
- C=CCNC(=[Se])NC(=O)c1cccnc1 [Compound 7.II, N-(allylcarbamoselenoyl)nicotinamide]: 1.8
- C=CCNC(=[Se])NC(=O)c1cccc(C(=O)NC(=[Se])NCC=C)c1: 1.0
- CCCNC(=[Se])NC(=O)c1ccccc1 [Compound 5.I, N-(propylcarbamoselenoyl)benzamide]: 1.7

###

Tested on: DU-145 cells
Assay: Protective effects against H2O2-induced oxidative stress in DU-145 cells (MTT)
Format: cell-based, human
Settings: increase-fold of cell survival; compound 0.0003 mg/mL, 250 µM H2O2, DU-145
Kindly return class 1 if reported Increase-fold is no lower than 2; return class 0 if it is lower.

- CCCNC(=[Se])NC(=O)c1cccs1: class 0
- O=C1O[C@H]([C@@H](O)CO)C(O)=C1O [Asc. Acid, ascorbic acid, reference compound]: class 1
- CCCNC(=[Se])NC(=O)c1ccccc1 [Compound 5.I, N-(propylcarbamoselenoyl)benzamide]: class 0
- C=CCNC(=[Se])NC(=O)c1cccnc1 [Compound 7.II, N-(allylcarbamoselenoyl)nicotinamide]: class 0
- C=CCNC(=[Se])NC(=O)c1cccc(C(=O)NC(=[Se])NCC=C)c1: class 0

###

System: DU-145 (prostate) cancer cell line
Assay: MTT cell viability assay, DU-145
Type: cell-based, human
Conditions: Homo sapiens, DU-145, 48 h, read-out: Cell growth %, DU-145, 10 µM, 48 h, MTT
// returns 0 (no) unless activity at 10 µM is strictly below 60%, in which case 1 (yes)

• C=CCNC(=[Se])NC(=O)/C=C/c1ccco1 = 0 (no)
• CCCNC(=[Se])NC(=O)/C=C/c1ccccc1 [Compound 6.I, N-(propylcarbamoselenoyl)cinnamamide] = 1 (yes)
• CCCNC(=[Se])NC(=O)c1ccccc1 [Compound 5.I, N-(propylcarbamoselenoyl)benzamide] = 1 (yes)
• C=CCNC(=[Se])NC(=O)/C=C/c1ccccc1 [Compound 6.II, N-(allylcarbamoselenoyl)cinnamamide] = 1 (yes)
• C=CCNC(=[Se])NC(=O)c1ccccc1 [Compound 5.II, N-(allylcarbamoselenoyl)benzamide] = 0 (no)
• C=CCNC(=[Se])NC(=O)c1cccs1 = 0 (no)
• CCCNC(=[Se])NC(=O)c1cccs1 = 1 (yes)
• C=CCNC(=[Se])NC(=O)c1ccco1 = 0 (no)
• C=CCNC(=[Se])NC(=O)c1cccnc1 [Compound 7.II, N-(allylcarbamoselenoyl)nicotinamide] = 1 (yes)
• C=CCNC(=[Se])NC(=O)c1cccc(C(=O)NC(=[Se])NCC=C)c1 = 1 (yes)

###

Tested on: HTB-54 (lung) cancer cell line
Experiment: MTT cell viability assay, HTB-54
Assay type: cell-based, human
Conditions: Homo sapiens, HTB-54, 48 h, read-out: Cell growth %, HTB-54, 10 µM, 48 h, MTT
property_measured: activity at 10 µM (%)

• C=CCNC(=[Se])NC(=O)c1cccnc1 [Compound 7.II, N-(allylcarbamoselenoyl)nicotinamide] = 21.4
• CCCNC(=[Se])NC(=O)c1cccs1 = 92.3
• C#CCNC(=[Se])NC(=O)c1ccc2c(c1)OCO2 = 34.5
• C=CCNC(=[Se])NC(=O)c1ccc2c(c1)OCO2 = 51.9
• C#CCNC(=[Se])NC(=O)/C=C/c1ccco1 = 74.2
• C=CCNC(=[Se])NC(=O)c1cccs1 = 35.9
• C=CCNC(=O)c1cccc(C(=O)NC(=[Se])NCC=C)c1 = 48.3
• C#CCNC(=[Se])NC(=O)c1cccs1 = 76.8
• CCCNC(=[Se])NC(=O)c1ccccc1 [Compound 5.I, N-(propylcarbamoselenoyl)benzamide] = 36.8
• C=CCNC(=[Se])NC(=O)/C=C/c1cccs1 = 79.2
• C=CCNC(=[Se])NC(=O)/C=C/c1ccc2c(c1)OCO2 = 82.8
• C#CCNC(=[Se])NC(=O)c1ccco1 = 76
• CCCNC(=[Se])NC(=O)/C=C/c1ccccc1 [Compound 6.I, N-(propylcarbamoselenoyl)cinnamamide] = 84.6
• C=CCNC(=[Se])NC(=O)c1cccc(C(=O)NC(=[Se])NCC=C)c1 = 52.6
• C=CCNC(=[Se])NC(=O)c1ccccc1 [Compound 5.II, N-(allylcarbamoselenoyl)benzamide] = 67.6
• CCCNC(=[Se])NC(=O)c1ccco1 = 47.1
• C=CCNC(=[Se])NC(=O)c1ccco1 = 54.9
• C=CCNC(=[Se])NC(=O)/C=C/c1ccccc1 [Compound 6.II, N-(allylcarbamoselenoyl)cinnamamide] = 68.7
• C=CCNC(=[Se])NC(=O)/C=C/c1ccco1 = 73.1
• C#CCNC(=[Se])NC(=O)c1ccccc1 = 76

###

Tested on: DU-145 cells
Test: Protective effects against H2O2-induced oxidative stress in DU-145 cells (MTT)
Assay type: cell-based, human
Conditions: increase-fold of cell survival; compound 0.0003 mg/mL, 200 µM H2O2, DU-145
Method: Cells were treated with the selected compounds and then oxidative damage to DU-145 cells was induced using different concentrations of H2O2 (200, 250 and 300 µM), and cell viability was assessed by the MTT method. Briefly, 2.5 × 10^4 DU-145 cells per well were added in 96-well plates. […] For each treatment, the mean cell viability was calculated from three independent experiments. […] The standard error of the mean (SEM) was calculated in at least three independent experiments performed in quadruplicates.
property_measured: Increase-fold

• CCCNC(=[Se])NC(=O)c1ccccc1 [Compound 5.I, N-(propylcarbamoselenoyl)benzamide] = 1.9
• CCCNC(=[Se])NC(=O)c1ccco1 = 2.0
• O=C1O[C@H]([C@@H](O)CO)C(O)=C1O [Asc. Acid, ascorbic acid, reference compound] = 4.2
• CCCNC(=[Se])NC(=O)c1cccs1 = 0.8
• C=CCNC(=[Se])NC(=O)c1cccnc1 [Compound 7.II, N-(allylcarbamoselenoyl)nicotinamide] = 2.3
• C=CCNC(=[Se])NC(=O)c1cccc(C(=O)NC(=[Se])NCC=C)c1 = 0.8

###

List of activity at 10 µM values.
Tested on: DU-145 (prostate) cancer cell line
Test: MTT cell viability assay, DU-145
Type: cell-based, human
Settings: Homo sapiens, DU-145, 48 h, read-out: Cell growth %, DU-145, 10 µM, 48 h, MTT
property_measured: activity at 10 µM (%)

• C#CCNC(=[Se])NC(=O)c1ccco1 [Compound 1.III] = 42.4
• CCCNC(=[Se])NC(=O)c1ccco1 [Compound 1.I] = 44.9
• C#CCNC(=[Se])NC(=O)c1ccccc1 [Compound 5.III] = 80.8
• C=CCNC(=[Se])NC(=O)c1ccc2c(c1)OCO2 [Compound 8.II] = 88.6
• C#CCNC(=[Se])NC(=O)c1ccc2c(c1)OCO2 [Compound 8.III] = 63
• C#CCNC(=[Se])NC(=O)/C=C/c1ccco1 [Compound 3.III] = 86.5
• C#CCNC(=[Se])NC(=O)c1cccs1 [Compound 2.III] = 12.8
• C=CCNC(=[Se])NC(=O)/C=C/c1ccc2c(c1)OCO2 [Compound 9.II] = 110
• C=CCNC(=O)c1cccc(C(=O)NC(=[Se])NCC=C)c1 [Compound 11.II] = 93.8
• C=CCNC(=[Se])NC(=O)/C=C/c1cccs1 [Compound 4.II] = 67.2

###

Experiment: DPPH radical scavenging assay
Format: biochemical
Settings: 0.03 mg/mL, 5 min
Kindly return t if reported inhibition is no lower than 40%; return f if it is lower.

* C=CCNC(=[Se])NC(=O)/C=C/c1ccccc1 [Compound 6.II, N-(allylcarbamoselenoyl)cinnamamide] | f
* CCCNC(=[Se])NC(=O)c1ccco1 [Compound 1.I] | f
* C=CCNC(=[Se])NC(=O)/C=C/c1cccs1 [Compound 4.II] | f
* C=CCNC(=[Se])NC(=O)c1cccnc1 [Compound 7.II, N-(allylcarbamoselenoyl)nicotinamide] | t
* O=C1O[C@H]([C@@H](O)CO)C(O)=C1O [Asc. Acid, ascorbic acid, reference compound] | t
* Cc1c(C)c2c(c(C)c1O)CCC(C)(C(=O)O)O2 (stereo not drawn) [Trolox, trolox, reference compound] | t
* CCCNC(=[Se])NC(=O)c1cccs1 [Compound 2.I] | f
* CCCNC(=[Se])NC(=O)/C=C/c1ccccc1 [Compound 6.I, N-(propylcarbamoselenoyl)cinnamamide] | f
